Organism: Rattus norvegicus
Test: Reduction in triglyceride level in CFE rat […] in serum at 0.05% of diet treated through diet for 6 days relative to control
Format: functional
Design: scale not given: the % may be the effect or the level left
Measured quantity: Activity (%)
Answers are plain numbers, in %.

Please review the entries below; each comes with its answer.
COC(=O)c1ccc(OCCCCCCCCCCCSCc2ccccc2)cc1	49
C=CCCCCCCCCCOc1ccc(C(=O)OC)cc1	52
CCCCCCCCCCCC(CCOc1ccc(C(=O)O)cc1)SCC (stereo unspecified)	74

Please state, for each entry, its recorded Activity.
1. CCCCNCCCCCCCCCCCOc1ccc(C(=O)O)cc1
2. CCSCCCCCCCCCCCOc1ccc(C(=O)OC)cc1
3. CCCCNC(=O)CCCCCCCCCCOc1ccc(C(=O)O)cc1
4. COC(=O)c1ccc(OCCCCCCCCCCCSC(C)=O)cc1

Result ::
103
74
87
88

Items follow; give Activity for each.
1. O=C(O)c1ccc(OCCCCCCCCCCCCCCCOc2ccc(C(=O)O)cc2)cc1
2. CCCCCCCCCCCC(O)C(O)CCCOc1ccc(C(=O)O)cc1 (stereo unspecified)
3. CCCCCCCCCCCCCCCCOc1ccc(C(=O)OC2CCN(C)CC2)cc1
4. O=C(O)CCCCCCCCCCOc1ccc(C(=O)O)cc1

Result ::
1. 77
2. 60
3. 110
4. 135

---

Organism: Rattus norvegicus
Experiment: Reduction in triglyceride level in CFE rat […] in serum at 0.05% of diet treated through diet for 6 days relative to control
Assay type: functional
Set-up: scale not given: the % may be the effect or the level left
Consider the following compounds; for each one, report its Activity.
Answers are plain numbers, in %.

COC(=O)c1ccc(OCCCCCCCCCCCOS(C)(=O)=O)cc1	81
O=C(O)c1ccc(OCC2CCCCCCCCCCC2)cc1	130
CCSCCCCCCCCCCCOc1ccc(C(=O)O)cc1	56
CCCCCCCCCCCCCCCCOc1ccc(C(=O)O)cc1Cl	87
O=C(O)c1ccc(OCCCCCCCCCCCSCc2ccccc2)cc1	55
CCCCNCCCCCCCCCCCOc1ccc(C(=O)OC)cc1.Cl	71
CCCCCCCCCCCC(CCOc1ccc(C(=O)O)cc1)N=[N+]=[N-] (configuration not stated)	60
O=C(O)c1ccc(OCCCCCCCCCCCCCCCCS)cc1	35
CCCCCCCCCCCC(=O)CCOc1ccc(C(=O)O)cc1	75
CCCCCCCCCCCC1OC1CCCOc1ccc(C(=O)OC)cc1 (configuration not stated)	64

I'm hoping you can list Activity for every compound here, please.
1. O=C(O)c1ccc(OC(=O)C2C3CC4CC(C3)CC2C4)cc1 (configuration not stated)
2. CCCCCCCCCCCC(CCOc1ccc(C(=O)OC)cc1)SC(C)=O (configuration not stated)

Result ::
1: 101; 2: 70

---

Exercise: for every item that follows, state its recorded Activity.
Species on record: Rattus norvegicus
Assay: Reduction in triglyceride level in CFE rat […] in serum at 0.1% of diet treated through diet for 6 days relative to control
Format: functional
Parameters: scale not given: the % may be the effect or the level left
Include the unit after the number when you answer.

Worked examples follow.
CCCCCCCCCCCCCCCCOc1ccc(C(=O)O)cc1[N+](=O)[O-]	122%
O=C(O)c1ccc(OCCCCCCCCCCCCCCCSCc2ccccc2)cc1	37%
C=CCCCCCCCCCOc1ccc(C(=O)O)cc1	60%

Now examine the next entry.
Query :: # get_value(readout='Activity', item= CCCCNCCCCCCCCCCCOc1ccc(C(=O)OC)cc1 )
Result :: 114%
